measurement-description: Ex vivo stability in rat tissue extracts from liver, lung and kidney (HPLC)
Assay type: in vitro ADME
test-context: Wistar, after 24 hours, read-out: parent remaining
Square brackets hold non-standard residues; d marks the D form. Peptide text beside a SMILES is read from it. Oic = O=C(O)[C@@H]1C[C@@H]2CCCC[C@@H]2N1; d2Nal = N[C@H](Cc1ccc2ccccc2c1)C(=O)O; αMeF = C[C@](N)(Cc1ccccc1)C(=O)O; Orn = NCCC[C@H](N)C(=O)O
metric: remaining at 24 h

Request: Data request, read-out remaining at 24 h, for CC[C@H](C)[C@H](NC(=O)[C@@H](Cc1ccc2ccccc2c1)NC(=O)[C@H](CO)NC(=O)[C@](C)(Cc1ccccc1)NC(=O)CNC(=O)[C@@H]1CCCN1C(=O)[C@@H]1C[C@@H]2CCCC[C@@H]2N1C(=O)[C@H](CCCNC(=N)N)NC(=O)[C@H](CCCN)NC(C)=O)C(=O)O [compound c] (Ac-[Orn]R[Oic]PG[αMeF]S[d2Nal]I-OH)
Response: > 75%

Reference for the values: patent US7211566B2
